Values compiled from the RNAGym collection of RNA variant scans (doi:10.1021/acssynbio.7b00057).

B1: Pistol ribozyme (parent)
chain: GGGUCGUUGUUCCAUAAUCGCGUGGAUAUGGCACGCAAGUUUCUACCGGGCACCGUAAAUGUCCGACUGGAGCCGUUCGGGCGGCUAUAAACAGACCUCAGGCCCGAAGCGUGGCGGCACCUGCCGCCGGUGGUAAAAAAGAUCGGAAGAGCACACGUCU

Variants of: B1
Test: aptazyme ON/OFF ratio, guanine; higher = stronger switching; co-transcriptional cleavage with and without guanine
reported-property: aptazyme ON/OFF ratio
// return just the number, without any unit appended

Below, 3 variants whose answers are already recorded.
U8A U10C U11A C12G C13G	1.39
U7A G9U U10A U11C C13G	1.07
U7A C12A C13A	1.4

Proceed to the following item.
## Input Determine its reported aptazyme ON/OFF ratio: U8G G9A U10G U11C C12G
## Output 1.19
